Values were extracted from paper PMC8147275.

# Assayed Target: TDP1 (Homo sapiens, UniProt Q9NUW8)
# Construct: inferred from the pET 16B vector and purification on Ni-chelating resin; made in house
# Sequence (Q9NUW8 whole entry): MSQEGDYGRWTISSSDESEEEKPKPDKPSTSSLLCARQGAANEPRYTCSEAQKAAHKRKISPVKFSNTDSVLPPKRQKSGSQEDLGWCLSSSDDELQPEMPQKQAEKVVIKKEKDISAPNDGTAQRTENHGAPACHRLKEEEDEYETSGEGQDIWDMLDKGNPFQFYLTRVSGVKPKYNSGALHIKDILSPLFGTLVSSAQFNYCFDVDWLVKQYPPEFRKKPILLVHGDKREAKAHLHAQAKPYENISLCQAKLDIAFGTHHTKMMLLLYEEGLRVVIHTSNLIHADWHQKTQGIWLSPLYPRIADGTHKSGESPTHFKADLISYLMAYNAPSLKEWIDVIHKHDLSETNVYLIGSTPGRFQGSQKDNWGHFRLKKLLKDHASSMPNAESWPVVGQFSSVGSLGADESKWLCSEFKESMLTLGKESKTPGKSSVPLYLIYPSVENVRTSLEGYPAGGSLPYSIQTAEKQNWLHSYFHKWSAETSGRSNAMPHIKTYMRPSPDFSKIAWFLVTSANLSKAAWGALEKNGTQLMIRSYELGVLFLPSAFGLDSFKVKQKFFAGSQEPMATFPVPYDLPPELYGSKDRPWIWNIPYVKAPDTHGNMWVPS
# Method Summary: TDP1 assay: recombinant TDP1 with fluorescent biosensor (FAM/BHQ1), cell-free
# Type: biochemical
# Setup Conditions: recombinant TDP1 1.5 nM, biosensor 50 nM, 26 °C
Readout Name: pIC50
# log scale: pIC50 equals minus log10 of the concentration in mol/L

Recorded pIC50, per entry:
Compound: CC(C)c1ccc2c(c1)CC[C@H]1[C@](C)(NC(=O)NC34CC5CC(CC(C5)C3)C4)CCC[C@]21C
Measured: 6.24
--
Compound: CC(C)C1=CC2=CC[C@H]3[C@](C)(NC(=O)NC4C5CC6CC(C5)CC4C6)CCC[C@]3(C)C2CC1 (some centres unmarked)
Measured: 5.85
--
Compound: CC(C)c1ccc2c(c1)CC[C@H]1[C@](C)(CNC(=O)C3C4CC5CC(C4)CC3C5)CCC[C@]21C (some centres unmarked)
Measured: 5.74

As a next step, examine the compound that follows.
Enquiry: Given the compound `CC(C)c1ccc2c(c1)CC[C@H]1[C@](C)(CNC(=S)C34CC5CC(CC(C5)C3)C4)CCC[C@]21C` , what is its reported pIC50?
Return: 5.64

----------
# Assayed Target: TDP1 (Homo sapiens)
# Construct: inferred from the pET 16B vector and purification on Ni-chelating resin; made in house
# Method Summary: TDP1 assay: recombinant TDP1 with fluorescent biosensor (FAM/BHQ1), cell-free
# Assay type: biochemical
# Setup Conditions: recombinant TDP1 1.5 nM, biosensor 50 nM, 26 °C
Form field: IC50 (one value per entry).
The reply should contain only the number, in nM.

Recorded IC50, per entry:
Compound: CC(C)c1ccc2c(c1)CC[C@H]1[C@](C)(CNC(=O)NC34CC5CC(CC(C5)C3)C4)CCC[C@]21C
Readout Name: IC50
Measured: 190
//
Compound: CC(C)c1ccc2c(c1)CC[C@H]1[C@](C)(NC(=O)NC3C4CC5CC(C4)CC3C5)CCC[C@]21C (stereo partly shown)
Readout Name: IC50
Measured: 590
//
Compound: CC(C)c1ccc2c(c1)CC[C@H]1[C@](C)(CNC(=O)C34CC5CC(CC(C5)C3)C4)CCC[C@]21C
Readout Name: IC50
Measured: 940
//
Compound: CC(C)c1ccc2c(c1)CC[C@H]1[C@](C)(CNC(=S)NC34CC5CC(CC(C5)C3)C4)CCC[C@]21C
Readout Name: IC50
Measured: 1500
//
Compound: CC(C)c1ccc2c(c1)CC[C@H]1[C@](C)(CNC(=S)NC3C4CC5CC(C4)CC3C5)CCC[C@]21C (stereo partly shown)
Readout Name: IC50
Measured: 670

Enquiry: Given the compound CC(C)C1=CC2=CC[C@H]3[C@](C)(NC(=O)NC45CC6CC(CC(C6)C4)C5)CCC[C@]3(C)C2CC1 (stereo partly shown) , what is its reported IC50?
Return: 1700

Enquiry: Given the compound CC(C)c1ccc2c(c1)CC[C@H]1[C@](C)(CNC(=O)NC3C4CC5CC(C4)CC3C5)CCC[C@]21C (stereo partly shown) , what is its reported IC50?
Return: 800
